Tested on: HIV-RF-II
assay-details: Inhibition of syncytia formation, HIV-RF-II
setup-conditions: Human immunodeficiency virus 1, 18 h, read-out: HIV-RF-II ED100, complete inhibition of syncytia formation
parameter: EC100 (µg/mL)
State the answer as a number, implicitly in µg/mL.

What does the data say about its EC100? Entry: O=S(=O)(O)c1c2c(O)c3c(O)c(c(S(=O)(=O)O)c(Br)c3c1Br)C(C(Br)CBr)c1c(S(=O)(=O)O)c(Br)c3c(Br)c(S(=O)(=O)O)c(c(O)c3c1O)C(C(Br)CBr)c1c(S(=O)(=O)O)c(Br)c3c(Br)c(S(=O)(=O)O)c(c(O)c3c1O)C(C(Br)CBr)c1c(S(=O)(=O)O)c(Br)c3c(Br)c(S(=O)(=O)O)c(c(O)c3c1O)C2C(Br)CBr (stereo not drawn)
500

Record request: EC100 value, item CCCC(=O)Oc1c2c(S(=O)(=O)O)cc3cc(S(=O)(=O)O)c(c(OC(=O)CCC)c13)Cc1c(S(=O)(=O)O)cc3cc(S(=O)(=O)O)c(c(OC(=O)CCC)c3c1OC(=O)CCC)Cc1c(S(=O)(=O)O)cc3cc(S(=O)(=O)O)c(c(OC(=O)CCC)c3c1OC(=O)CCC)Cc1c(S(=O)(=O)O)cc3cc(S(=O)(=O)O)c(c(OC(=O)CCC)c3c1OC(=O)CCC)C2
32

So what does the record say about EC100 for O=S(=O)(O)c1c2c(O)c3c(O)c(c(S(=O)(=O)O)c(O)c3c1O)Cc1c(S(=O)(=O)O)c(O)c3c(O)c(S(=O)(=O)O)c(c(O)c3c1O)Cc1c(S(=O)(=O)O)c(O)c3c(O)c(S(=O)(=O)O)c(c(O)c3c1O)Cc1c(S(=O)(=O)O)c(O)c3c(O)c(S(=O)(=O)O)c(c(O)c3c1O)C2 ?
125

Consider the compound shown here: CC=CC(=O)Oc1c2c(S(=O)(=O)O)cc3cc(S(=O)(=O)O)c(c(OC(=O)C=CC)c13)Cc1c(S(=O)(=O)O)cc3cc(S(=O)(=O)O)c(c(OC(=O)C=CC)c3c1OC(=O)C=CC)Cc1c(S(=O)(=O)O)cc3cc(S(=O)(=O)O)c(c(OC(=O)C=CC)c3c1OC(=O)C=CC)Cc1c(S(=O)(=O)O)cc3cc(S(=O)(=O)O)c(c(OC(=O)C=CC)c3c1OC(=O)C=CC)C2 What is its recorded EC100?
63

What value of EC100 has been reported for the following compound? CS(=O)(=O)c1cc2cc(S(C)(=O)=O)c3c(O)c2c(O)c1Cc1c(S(C)(=O)=O)cc2cc(S(C)(=O)=O)c(c(O)c2c1O)Cc1c(S(C)(=O)=O)cc2cc(S(C)(=O)=O)c(c(O)c2c1O)Cc1c(S(C)(=O)=O)cc2cc(S(C)(=O)=O)c(c(O)c2c1O)C3
7500

I'd like to know its EC100. The compound in question is COc1c2c(S(=O)(=O)O)cc3cc(S(=O)(=O)O)c(c(OC)c13)C(C(=O)O)c1c(S(=O)(=O)O)cc3cc(S(=O)(=O)O)c(c(OC)c3c1OC)C(C(=O)O)c1c(S(=O)(=O)O)cc3cc(S(=O)(=O)O)c(c(OC)c3c1OC)C(C(=O)O)c1c(S(=O)(=O)O)cc3cc(S(=O)(=O)O)c(c(OC)c3c1OC)C2C(=O)O (stereo not drawn)
32
